Source: paper PMC7808749

test_target: MAO-B (Homo sapiens)
assay_method_text: MAO-B inhibition assay (benzylamine substrate)
Format: biochemical
stated_conditions: read-out: Residual activities (%) MAO-B (1.0 µM)
measurement_name: remaining activity at 1 µM

* O=C(/C=C/c1ccc(Br)cc1)c1ccc(N2CCOCC2)cc1 [MO9] | 51.3%
* O=C(/C=C/c1ccccc1)c1ccc(N2CCOCC2)cc1 [MO1] | 38.1%
* COc1ccc(/C=C/C(=O)c2ccc(N3CCOCC3)cc2)cc1 [MO3] | 79.9%
* CCc1ccc(/C=C/C(=O)c2ccc(N3CCOCC3)cc2)cc1 [MO6] | 64.1%
* O=C(/C=C/c1ccc(Cl)cc1)c1ccc(N2CCOCC2)cc1 [MO8] | 34.6%
* O=C(/C=C/c1ccc(O)cc1)c1ccc(N2CCOCC2)cc1 [MO2] | 54.5%
* O=C(/C=C/c1ccc([N+](=O)[O-])cc1)c1ccc(N2CCOCC2)cc1 [MO7] | 26.1%
* Cc1ccc(/C=C/C(=O)c2ccc(N3CCOCC3)cc2)cc1 [MO4] | 49%

---

assay_method_text: in vitro
stated_conditions: PAMPA
Papp values by entry
measurement_name: Papp

• CCn1cc(C(=O)O)c(=O)c2cc(F)c(N3CCNC(C)C3)c(F)c21 (centres unmarked) [Lomefloxacin, reference compound] = 1.26 ×10⁻⁶ cm/s
• O=C(/C=C/c1ccc(Br)cc1)c1ccc(N2CCOCC2)cc1 [MO9] = 14.6 ×10⁻⁶ cm/s
• O=C(/C=C/c1ccccc1)c1ccc(N2CCOCC2)cc1 [MO1] = 16.3 ×10⁻⁶ cm/s
• CN(C)c1ccc(/C=C/C(=O)c2ccc(N3CCOCC3)cc2)cc1 [MO5] = 14.4 ×10⁻⁶ cm/s
• CN1C(C(=O)Nc2ccccn2)=C(O)c2ccccc2S1(=O)=O [Piroxicam, reference compound] = 2.35 ×10⁻⁶ cm/s

---

test_target: MAO-B (Homo sapiens, UniProt P27338)
Sequence (P27338 1-520): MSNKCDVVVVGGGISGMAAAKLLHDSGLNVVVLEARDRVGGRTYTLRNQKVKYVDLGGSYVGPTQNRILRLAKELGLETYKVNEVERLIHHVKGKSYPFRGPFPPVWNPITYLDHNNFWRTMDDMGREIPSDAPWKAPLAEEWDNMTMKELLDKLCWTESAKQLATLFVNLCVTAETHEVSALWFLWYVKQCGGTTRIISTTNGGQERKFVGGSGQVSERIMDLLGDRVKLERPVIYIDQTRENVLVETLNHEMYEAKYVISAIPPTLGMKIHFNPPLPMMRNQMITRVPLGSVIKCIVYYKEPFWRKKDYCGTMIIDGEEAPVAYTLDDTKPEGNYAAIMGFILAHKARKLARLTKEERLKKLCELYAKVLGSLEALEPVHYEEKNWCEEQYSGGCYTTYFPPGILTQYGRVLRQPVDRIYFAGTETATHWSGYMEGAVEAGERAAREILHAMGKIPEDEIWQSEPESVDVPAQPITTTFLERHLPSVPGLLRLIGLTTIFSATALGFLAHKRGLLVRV
assay_method_text: MAO-B inhibition assay (benzylamine substrate)
Type: biochemical
measurement_name: IC50 (µM)

• Cc1ccc(/C=C/C(=O)c2ccc(N3CCOCC3)cc2)cc1 [MO4] = 0.33
• O=C(/C=C/c1ccc(Br)cc1)c1ccc(N2CCOCC2)cc1 [MO9] = 0.36
• CCc1ccc(/C=C/C(=O)c2ccc(N3CCOCC3)cc2)cc1 [MO6] = 0.64
• COc1ccc(/C=C/C(=O)c2ccc(N3CCOCC3)cc2)cc1 [MO3] = 1.01
• O=C(/C=C/c1ccc(Cl)cc1)c1ccc(N2CCOCC2)cc1 [MO8] = 0.32
• O=C(/C=C/c1ccc([N+](=O)[O-])cc1)c1ccc(N2CCOCC2)cc1 [MO7] = 0.25
• O=C(/C=C/c1ccc(O)cc1)c1ccc(N2CCOCC2)cc1 [MO2] = 0.7
